Sourced from PubChem BioAssay (EPA / NIEHS)

Read-out: Plasminogen activator inhibitor-1 (PAI1), SERPINE1 (gene 5054)
Assay: BSK_BE3C_PAI1: BioMAP Diversity Plus: BE3C Assay for Plasminogen activator inhibitor-1 (PAI1) Biomarker Activity (AID 2283037)
Conditions: primary human bronchial epithelial cells; actives raise or lower the signal
Protocol: BSK_BE3C is a cell-based, multiplexed-readout assay that uses bronchial epithelial cell, a human lung primary cell, with measurements taken at 24 hours after chemical dosing in a 96-well plate.BSK_BE3C_PAI1 is an assay component measured in the BSK_BE3C assay. It measures PAI-1 antibody related to regulation of gene expression using ELISA technology.Data from the assay component BSK_BE3C_PAI1 was analyzed into 1 assay endpoint. […]
Activity calls are given as the source filed them. Rule for the calls: active = hit-call score of the fitted dose curve at least 0.9, where 1 is the maximum; inactive = score below 0.9.
In this exercise, the only acceptable responses are yes for active, no for inactive

Exam item: Look up the recorded call for C=CC(=O)OCC(F)(F)C(F)(F)C(F)(F)C(F)(F)COC(=O)C=C in this test.
Marked response: no

Exam item: Moving on to C=C(C)C(=O)OCCC(F)(F)C(F)(F)C(F)(F)C(F)(F)C(F)(C(F)(F)F)C(F)(F)F
Marked response: no

Exam item: Moving on to O=C(Cl)C(F)(F)C(F)(F)C(F)(F)C(F)(F)C(F)(F)C(F)(F)C(F)(F)C(F)(F)F
Marked response: no

Exam item: Moving on to OCC(F)(F)C(F)(F)C(F)(F)C(F)(F)C(F)(F)C(F)(F)F
Marked response: no

Exam item: Moving on to FC(F)(F)C(F)(F)C(F)(F)CI
Marked response: no

Exam item: Moving on to FC(F)(F)C(F)(F)C(F)(F)N(C(F)(F)C(F)(F)C(F)(F)F)C(F)(F)C(F)(F)C(F)(F)F
Marked response: no

Exam item: Moving on to O=C(O)C(F)(F)C(F)(F)C(F)(F)C(F)(F)C(F)(F)C(F)(F)C(F)(F)C(F)(F)C(F)(F)C(F)(F)C(F)(F)C(F)(F)F
Marked response: no

Exam item: Moving on to C=CC(F)(F)C(F)(F)C(F)(F)C(F)(F)C(F)(F)C(F)(F)C(F)(F)C(F)(F)F
Marked response: no

Exam item: Moving on to O=C(O)C(F)(OC(F)(F)C(F)(OC(F)(F)C(F)(OC(F)(F)C(F)(F)C(F)(F)F)C(F)(F)F)C(F)(F)F)C(F)(F)F (stereo not drawn)
Marked response: no

Exam item: Moving on to O=P(O)(O)OCCC(F)(F)C(F)(F)C(F)(F)C(F)(F)C(F)(F)C(F)(F)F
Marked response: no

Exam item: Moving on to C=C(C)C(=O)OCC(F)(F)C(F)(F)C(F)(F)F
Marked response: no

Exam item: Moving on to N=C(N)C(F)(F)C(F)(F)C(F)(F)C(F)(F)C(F)(F)C(F)(F)C(F)(F)F
Marked response: no

Exam item: Moving on to FC(F)(F)C(F)(F)C(F)(F)C(F)(F)C(F)(F)C(F)(F)CCS
Marked response: no

Exam item: Moving on to CCCCCCCCCCCCCCCC[N+](C)(C)Cc1ccccc1
Marked response: yes

Exam item: Moving on to COC(=O)CCC(F)(F)C(F)(F)C(F)(F)C(F)(F)F
Marked response: no

Exam item: Moving on to CCCCCCC(C)OC(=O)CCCCC(=O)OC(C)CCCCCC (stereo not drawn)
Marked response: no

Exam item: Moving on to O[Si](c1ccccc1)(c1ccccc1)c1ccccc1
Marked response: yes

Exam item: Moving on to C=CC(=O)OCC(F)(F)C(F)(F)C(F)(F)C(F)(F)C(F)(F)C(F)(F)C(F)(F)F
Marked response: no

Exam item: Moving on to O=C(O)C(F)(OC(F)(F)C(F)(OC(F)(F)C(F)(F)C(F)(F)F)C(F)(F)F)C(F)(F)F (stereo not drawn)
Marked response: no

Exam item: Moving on to FC(F)(F)C(F)(F)CNCC(F)(F)C(F)(F)F
Marked response: no

Exam item: Moving on to O=C(CC(=O)C(F)(F)C(F)(F)F)C(F)(F)F
Marked response: no

Exam item: Moving on to O=C(O)C(F)(F)C(F)(F)OC(F)(F)F
Marked response: no

Exam item: Moving on to CC(CCl)OP(=O)(OC(C)CCl)OC(C)CCl (stereo not drawn)
Marked response: no

Exam item: Moving on to O=C(O)C(F)(F)C(F)(F)C(F)F
Marked response: no

Exam item: Moving on to OCC(F)(F)C(F)(F)C(F)(F)C(F)(F)C(F)(F)C(F)F
Marked response: no

Exam item: Moving on to FC(F)(F)C(F)(F)C(F)(F)C(F)(F)C(F)(F)C(F)(F)C(F)(F)C(F)(F)F
Marked response: no

Exam item: Moving on to O=C(O)C(F)(F)C(F)(F)F
Marked response: no

Exam item: Moving on to O=C(O)C(F)(F)C(F)(F)C(F)(F)C(F)(F)F
Marked response: no

Exam item: Moving on to CCCCOCCOCCOC(=O)CCCCC(=O)OCCOCCOCCCC
Marked response: no

Exam item: Moving on to FC(F)(F)C(F)(F)C(F)(F)C(F)(F)C(F)(F)CCI
Marked response: no

Exam item: Moving on to Cc1ccc(S(=O)(=O)OCC(F)(F)C(F)(F)C(F)(F)C(F)(F)C(F)(F)C(F)F)cc1
Marked response: no

Exam item: Moving on to CCN(CC)c1ccc2c(C)cc(=O)oc2c1
Marked response: no

Exam item: Moving on to FC1CC(F)(F)C(F)(F)C1(F)F (stereo not drawn)
Marked response: no

Exam item: Moving on to O=S(=O)(OCCOC(F)(F)F)C(F)(F)F
Marked response: no

Exam item: Moving on to CCO[Si](CCC(F)(F)C(F)(F)C(F)(F)C(F)(F)C(F)(F)C(F)(F)F)(OCC)OCC
Marked response: no

Exam item: Moving on to CCCCCCCCC(F)(F)C(F)(F)C(F)(F)C(F)(F)C(F)(F)C(F)(F)F
Marked response: no

Exam item: Moving on to CC(=O)Nc1ccc(N=Nc2cc(C)ccc2O)cc1
Marked response: no

Exam item: Moving on to CO[Si](OC)(c1ccccc1)c1ccccc1
Marked response: no

---

Target: CCAAT/enhancer-binding protein beta (Homo sapiens) (UniProt P17676)
Sequence (P17676 whole entry, looked up): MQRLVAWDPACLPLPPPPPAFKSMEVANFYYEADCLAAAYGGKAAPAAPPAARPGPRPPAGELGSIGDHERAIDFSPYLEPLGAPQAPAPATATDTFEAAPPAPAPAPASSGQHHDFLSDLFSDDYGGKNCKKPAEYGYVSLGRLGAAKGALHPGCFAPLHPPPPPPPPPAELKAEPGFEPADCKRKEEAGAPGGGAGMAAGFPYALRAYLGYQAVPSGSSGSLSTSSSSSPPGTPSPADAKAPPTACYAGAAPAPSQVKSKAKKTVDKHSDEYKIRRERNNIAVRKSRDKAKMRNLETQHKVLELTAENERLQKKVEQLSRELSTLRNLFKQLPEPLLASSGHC
Assay: ATG_C_EBP_CIS: Attagene CIS-FACTORIAL HepG2 Assay for human CCAAT/Enhancer Binding Protein (C/EBP) beta (AID 2282927)
Details: HepG2 Attagene cis-factorial transcription factor reporter; actives raise or lower the signal
The source made the active and inactive calls. The calls were made as follows: active = hit-call score of the fitted dose curve at least 0.9, where 1 is the maximum; inactive = score below 0.9.
In this exercise, the only acceptable responses are 1 (yes) = active, 0 (no) = inactive

Exam item: Look up the recorded call for Nc1ccc(S(=O)(=O)Nc2nccs2)cc1 in this test.
Marked response: 0 (no)

Exam item: Moving on to CCCCCCCCCCCCCCCC[N+](C)(C)Cc1ccccc1
Marked response: 0 (no)

Exam item: Moving on to C=C(C)C(=O)OCC(F)(F)C(F)(F)C(F)(F)C(F)(F)C(F)(F)C(F)(F)C(F)(F)F
Marked response: 0 (no)

Exam item: Moving on to CCCCOc1ccc(N)cc1
Marked response: 0 (no)

Exam item: Moving on to COC(=O)C1CCC(C(=O)OC)CC1 (stereo not given)
Marked response: 0 (no)

Exam item: Moving on to CCCCCCCCC(F)(F)C(F)(F)C(F)(F)C(F)(F)C(F)(F)C(F)(F)F
Marked response: 0 (no)

Exam item: Moving on to C(=C(c1ccccc1)c1ccccc1)c1ccccc1
Marked response: 0 (no)

Exam item: Moving on to NC(=O)C(F)(F)C(F)(F)C(F)(F)C(F)(F)F
Marked response: 0 (no)

Exam item: Moving on to CC/C=C\CCOC(C)=O
Marked response: 0 (no)

Exam item: Moving on to c1ccc(-c2ccccc2-c2ccccc2)cc1
Marked response: 0 (no)

Exam item: Moving on to O=S(=O)(O)c1ccc2ccccc2c1
Marked response: 0 (no)

Exam item: Moving on to O=C(O)C(F)(F)C(F)(F)C(F)(F)C(F)(F)F
Marked response: 0 (no)

Exam item: Moving on to OC[C@@H](O)[C@@H](O)[C@H](O)[C@@H](O)CO
Marked response: 0 (no)

Exam item: Moving on to FC1CC(F)(F)C(F)(F)C1(F)F (stereo not given)
Marked response: 0 (no)

Exam item: Moving on to N=C(N)C(F)(F)C(F)(F)C(F)(F)C(F)(F)C(F)(F)C(F)(F)C(F)(F)F
Marked response: 1 (yes)

---

Biological target: Estrogen receptor (Homo sapiens) + Estrogen receptor beta (Homo sapiens) (UniProt P03372+Q92731)
Sequence (P03372 whole entry, looked up, the tested form may be a part): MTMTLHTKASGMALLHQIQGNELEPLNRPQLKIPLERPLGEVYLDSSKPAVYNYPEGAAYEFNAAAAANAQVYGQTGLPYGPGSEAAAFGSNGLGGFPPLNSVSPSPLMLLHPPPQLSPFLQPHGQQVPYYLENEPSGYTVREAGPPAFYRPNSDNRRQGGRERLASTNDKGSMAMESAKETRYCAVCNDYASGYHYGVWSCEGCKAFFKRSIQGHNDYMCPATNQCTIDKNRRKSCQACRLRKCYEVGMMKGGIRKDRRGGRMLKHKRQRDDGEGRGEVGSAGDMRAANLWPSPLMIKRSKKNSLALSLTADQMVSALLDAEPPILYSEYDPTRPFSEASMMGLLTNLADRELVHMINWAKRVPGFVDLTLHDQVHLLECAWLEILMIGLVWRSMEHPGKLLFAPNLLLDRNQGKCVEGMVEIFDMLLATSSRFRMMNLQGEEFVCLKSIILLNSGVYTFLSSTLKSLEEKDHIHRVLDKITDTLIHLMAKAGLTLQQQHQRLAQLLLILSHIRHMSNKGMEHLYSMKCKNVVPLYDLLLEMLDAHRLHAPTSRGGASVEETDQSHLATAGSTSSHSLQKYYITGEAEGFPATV
Sequence (Q92731 whole entry, looked up, the tested form may be a part): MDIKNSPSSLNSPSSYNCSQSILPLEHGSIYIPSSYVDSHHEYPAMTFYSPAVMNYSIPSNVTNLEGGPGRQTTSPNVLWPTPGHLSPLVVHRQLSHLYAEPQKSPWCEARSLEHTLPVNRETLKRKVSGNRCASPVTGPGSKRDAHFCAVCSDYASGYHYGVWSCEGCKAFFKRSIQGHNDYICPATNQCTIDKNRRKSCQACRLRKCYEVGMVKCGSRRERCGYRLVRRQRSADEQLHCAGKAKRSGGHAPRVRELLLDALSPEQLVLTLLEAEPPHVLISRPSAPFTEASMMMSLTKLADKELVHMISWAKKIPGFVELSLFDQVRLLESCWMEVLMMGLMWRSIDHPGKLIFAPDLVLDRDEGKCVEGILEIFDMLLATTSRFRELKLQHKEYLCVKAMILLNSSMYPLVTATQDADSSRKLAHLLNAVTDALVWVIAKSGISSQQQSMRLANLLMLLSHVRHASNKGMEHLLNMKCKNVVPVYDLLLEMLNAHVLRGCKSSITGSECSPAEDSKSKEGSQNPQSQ
Assay: OT_ER_ERaERb_1440: Odyssey Thera (OT) 24-hour HEK293T Protein-Complementation Assay for Estrogen Receptor-alpha/-beta Homodimer (AID 2283356);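 note: heteromer of ER alpha and ER beta binding domains; hits raise reporter fluorescence and both agonists and antagonists give an increase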
Inconclusive results are not listed. Activity calls are given as the source filed them. The calls were made as follows: active = hit-call score of the fitted dose curve at least 0.9, where 1 is the maximum; inconclusive = response in the unintended direction; inactive = score below 0.9.
readout kind: AC50

These solved cases illustrate the format of a correct answer.
[
  {
    "compound": "O=C(OCCOCCOCCOC(=O)c1ccccc1)c1ccccc1",
    "AC50": "inactive"
  },
  {
    "compound": "C1COCCN1",
    "AC50": "inactive"
  },
  {
    "compound": "CC(Cc1ccc(O)c(O)c1)C(C)Cc1ccc(O)c(O)c1 (stereo unspecified)",
    "AC50": "11.9 µM (active)"
  },
  {
    "compound": "CC(CCl)OP(=O)(OC(C)CCl)OC(C)CCl (stereo unspecified)",
    "AC50": "inactive"
  },
  {
    "compound": "C(=C(c1ccccc1)c1ccccc1)c1ccccc1",
    "AC50": "29.3 µM (active)"
  }
]

Okay, next one:
Exam item: Can you look up the measured AC50 of CCCCCCC(C)OC(=O)CCCCC(=O)OC(C)CCCCCC (stereo unspecified) for me?
Marked response: inactive
